- Test system: NO release in LPS-stimulated RAW 264.7 macrophage cells
- experiment.description: Inhibition of nitric oxide production (Griess nitrite assay) in LPS-activated RAW 264.7 macrophages
- Format: cell-based, murine
- experimental.context: LPS-stimulated RAW 264.7, 48 h, ¾ IC50 concentration
reported.endpoint: NO inhibition (%)
Numbers only here, please. The scale is %.

Known NO inhibition results, listed for orientation:
CC(C)C1=CC2=C(C(=O)C1=O)C1=CCCC(C)(C)[C@@]1(C)C=C2 ... 100
CC(C)=CCCc1c(C)ccc2c1C(=O)C(=O)C(C(C)C)=C2 ... 100
CC(C)c1cc2c(c(O)c1O)C1=CC(=O)CC(C)(C)[C@@]1(C)C=C2 ... 91
CC(C)C1=CC2=C(C(=O)C1=O)C1=CC(=O)CC(C)(C)[C@@]1(C)C=C2 ... 100

The record that follows has no NO inhibition shown yet.
Determine its reported NO inhibition: `CC(C)C1=CC2=C(C(=O)C1=O)[C@@]1(C)CCCC(C)(C)[C@@H]1CC2` 99.6
